Overview of reported EC50 across a group of binders:
Biological target: T1, His6-tagged human KRas Isoform 4B (residues 1-169) (human, UniProt P01116-2 1-169)
T1 construct: Expressed in E. coli BL21(DE3), purified on Ni-NTA; also called KRas protein; WT KRas protein; not shown: His6 tag from the PQE80 vector
Assay: barcoded rapid assay microchip, fitted curves of FIG. 6B (Hill coefficient 1), triplicate
Ends that are not written are not given here.

binder: HGIVG (triazole (positions not given here); not fully specified (bridges); also: 1,4-triazole macrocycle, ring places not given here, propargylglycine click handle, place not given here, biotinylated (biotin NovaTag resin), site not given here, Second HPLC fraction; also called HGIVG f2) [L1b]
EC50 (µM): 12.2

binder: VTVPY (triazole (positions not given here); not fully specified (bridges); also: macrocycle closed by 1,4-triazole, propargylglycine click handle, other ring residues not given here, also called VTVPY) [L6]
EC50 (µM): 16

binder: GEVVP (triazole (positions not given here); not fully specified (bridges); also: 1,4-triazole macrocycle, ring places not given here, propargylglycine click handle, place not given here, biotinylated (biotin NovaTag resin), site not given here, also called GEVVP f1) [L3a]
EC50 (µM): 53.3
